target: HLA-A*03:01; experiment: IEDB peptide-MHC binding, purified MHC/competitive/fluorescence; bounds were set here for any values at or beyond the usual limits of such assays; details: source organism: Ateles geoffroyi
Measured parameter: IC50

What does the record list as IC50 for LPADPASVL ?
≥ 20 µM

----------
biological target: HLA-A*31:01; assay: IEDB peptide-MHC binding, purified MHC/direct/fluorescence; filed as Kd, often an IC50 or EC50 that approximates it; bounds were set here for any values at or beyond the usual limits of such assays; settings: source organism: Yersinia pestis
Measured parameter: Kd

Which Kd value is on record for TMPELAWAV ?
≥ 20 µM

----------
target: HLA-B*39:01; assay: IEDB peptide-MHC binding, purified MHC/direct/fluorescence; filed as Kd, often an IC50 or EC50 that approximates it; bounds were set here for any values at or beyond the usual limits of such assays; conditions: source organism: Burkholderia mallei ATCC 23344
Measured parameter: Kd

Return Kd measured with HLA-B*39:01 given this sequence: MVFGRFSFA
≥ 20 µM
